From: PubChem BioAssay (NCI)

# procedure.text: NCI Yeast Anticancer Drug Screen. Data for the mgt1 strain (AID 153)
# experimental.setup: S. cerevisiae mgt1 mutant growth inhibition; at 1.2 µM; stronger effect = higher value
About 79,000 compounds went through this panel and 15% of them were active in at least one assay; those are over-represented in the sample as a whole. Calls of active or inactive are those of the source. No stated cut-off is given here; in the data, active means growth inhibition above about 70%; inactive means the rest.
measured.endpoint: growth inhibition

molecule=O=[N+]([O-])c1cc(F)c(F)cc1Sc1cc(F)c(F)cc1[N+](=O)[O-] measured_endpoint="growth inhibition" result="-4% (inactive)"
molecule=CN(C)/C=C/c1nnc([N+](=O)[O-])s1 measured_endpoint="growth inhibition" result="-7% (inactive)"
molecule=CC(C)OC(=O)c1ccc(CCc2cc(O)c(Br)cc2O)cc1 measured_endpoint="growth inhibition" result="55% (inactive)"
molecule=COc1cc(O)c(O)c(C(C)(C)C)c1 measured_endpoint="growth inhibition" result="-2% (inactive)"
molecule=O=C(O)CNC(=S)Nc1ccccc1 measured_endpoint="growth inhibition" result="-36% (inactive)"
molecule=Cc1cc(NCCCCCCCCNc2cc(C)nc3cc(N)ccc23)c2ccc(N)cc2n1 measured_endpoint="growth inhibition" result="-72% (inactive)"
molecule=CCOc1ccccc1N=Cc1c2ccccc2cc2ccccc12 measured_endpoint="growth inhibition" result="2% (inactive)"
molecule=Cc1nc(Nc2ccccc2[N+](=O)[O-])sc1C(=O)CC(=O)C(=O)Nc1c(C(C)C)cccc1C(C)C measured_endpoint="growth inhibition" result="-1% (inactive)"
molecule="COc1ccc(C2C3=C(COC3=O)OC(C)(C)Oc3cc4c(cc32)OCO4)cc1OC (configuration not stated)" measured_endpoint="growth inhibition" result="27% (inactive)"
molecule=Clc1ccc(NCNC2Nc3ccccc3N2)cc1Cl measured_endpoint="growth inhibition" result="-4% (inactive)"
molecule=Cc1csc(=S)n1OC(=O)NC1CCCCC1 measured_endpoint="growth inhibition" result="18% (inactive)"
molecule="CC(O)=NC(Cc1ccc2ccccc2c1)C(O)=NC(Cc1ccc(Cl)cc1)C(O)=NC(Cc1c[nH]c2ccccc12)C(O)=NC(CO)C(O)=NC(Cc1ccc(O)cc1)C(O)=NC(CCCN=C(N)N)C(O)=NC(CC(C)C)C(O)=NC(CCCN=C(N)N)C(=O)N1CCCC1C(O)=NC(C)C(=N)O (configuration not stated)" measured_endpoint="growth inhibition" result="-3% (inactive)"
molecule=COc1ccc([N+](=O)[O-])c2c(NCCCN(C)C)c3ccccc3nc12 measured_endpoint="growth inhibition" result="2% (inactive)"
molecule="Cn1c(=O)c2c(nc(N)n2C2OC(CO)C(O)C2O)n(C)c1=O (configuration not stated)" measured_endpoint="growth inhibition" result="-1% (inactive)"
molecule=CS(=O)(=O)SCc1ccc([N+](=O)[O-])cc1 measured_endpoint="growth inhibition" result="-2% (inactive)"
molecule=COc1ccc2c(c1)n([O-])c1ccccc1[n+]2=O measured_endpoint="growth inhibition" result="-1% (inactive)"
molecule=Nc1ccc2c(c1)C(=O)c1ccc(F)cc1-2 measured_endpoint="growth inhibition" result="2% (inactive)"
molecule=CCO/C(C)=C(/C#N)C(N)=S measured_endpoint="growth inhibition" result="-2% (inactive)"
molecule=CCCCCCCCCCCCNC(C)=O measured_endpoint="growth inhibition" result="-2% (inactive)"
molecule=O=C(O)Cc1cc(F)ccc1C(=O)O measured_endpoint="growth inhibition" result="-1% (inactive)"
molecule="CC1CC(C)(C)CC(OCCN2CCCCC2)(c2ccccc2)C1 (configuration not stated)" measured_endpoint="growth inhibition" result="0% (inactive)"
molecule=COc1ccc(/C=C/c2sc3ccccc3[n+]2CCCCI)cc1OC measured_endpoint="growth inhibition" result="0% (inactive)"

----------
Consider the following molecules and their measured growth inhibition readings.
# procedure.text: NCI Yeast Anticancer Drug Screen. Data for the mgt1 strain (AID 153)
# experimental.setup: S. cerevisiae mgt1 mutant growth inhibition; at 100.0 µM; stronger effect = higher value
# Experimental: Growth inhibition of yeast strains with defined genetic alterations is measured as a screen for potential anti-cancer activity. Selected strains with alterations in DNA damage repair or cell cycle control were exposed to compounds and growth inhibition was measured relative to vehicle treated controls. The strain used in this assay is mgt1
This is part of a sample that, as a whole, favours compounds with a hit. Of some 79,000 tested, about 15% had one in any assay.
measured.endpoint: growth inhibition (%)

molecule="Cc1ccc(NC(=O)/C(CC2N=c3c(ccc4c(O)c5ccccc5c(O)c34)=NC2O)=N/NC(C)(C)C)cc1 (stereo not drawn)" readout_number=22
molecule=Cc1nc2ccccc2nc1NNc1ccccc1 readout_number=26
molecule="CC(=O)OC1CCC2(C)C(=CC(C3C=C4CC(OC(C)=O)CCC4(C)C4=C3C3CC5OC6(CCC(C)CO6)C(C)C5C3(C)CC4)C3=C2CCC2(C)C3CC3OC4(CCC(C)CO4)C(C)C32)C1 (stereo not drawn)" readout_number=83
molecule=CCCC/C=C/C(C)(C(=O)OCC)C(=O)OCC readout_number=16
molecule=O=C(NNc1ccccc1)c1ccc(Cl)c(Cl)c1 readout_number=23
molecule=Oc1ccc2ccccc2c1CCc1c(O)ccc2ccccc12 readout_number=87
molecule=Cc1c(C)c(C)c(CSC(=N)N)c(C)c1C readout_number=98
molecule=c1ccc2c(c1)sc1c3cnccc3ccc21 readout_number=3
molecule="O=C1OC(C2=CC(=O)c3ccccc3C2=O)C(Cl)=C1Cl (stereo not drawn)" readout_number=24
molecule="COC(C(O)CO)C(O)C(O)C(=O)NNc1ccccc1 (stereo not drawn)" readout_number=94
molecule=O=C1C(=O)c2ccccc2C(O)=C1C(C1=C(O)c2ccccc2C(=O)C1=O)c1ccc(Cl)cc1 readout_number=69
molecule=O=[N+]([O-])c1ccc(N/N=C/Cc2ccccc2)c([N+](=O)[O-])c1 readout_number=13
molecule=Cc1nc(-c2cc3cc([N+](=O)[O-])ccc3oc2=O)cs1 readout_number=89
molecule="CC(C)CCCC(C)C1CCC2C3CCC4=CC(=O)/C(=C\\O)CC4(C)C3CCC12C (stereo not drawn)" readout_number=6
molecule=CCOc1ccccc1N=Cc1c2ccccc2cc2ccccc12 readout_number=98
molecule=COC(=O)/C=C(/C(=O)OC)C(Cl)(Cl)Cl readout_number=99
molecule="CCOC(=O)C1=C(C)NC(C)=C(C(=O)OCCNC(=O)c2ccc(N=[N+]=[N-])cc2)C1c1ccccc1C(F)(F)F (stereo not drawn)" readout_number=24
molecule=CN(C)/C=C/c1nnc([N+](=O)[O-])s1 readout_number=98
molecule="CCCCCCN(CCCCCC)CC(O)c1ccnc2ccc(OC)cc12 (stereo not drawn)" readout_number=74
molecule=O=[N+]([O-])c1cc[n+]([O-])cc1 readout_number=99
molecule=O=C(NCCCl)Sc1ccc(Cl)cc1 readout_number=71
molecule=Cn1c(-c2ccc(/C=N\N3CCN(/N=C/c4ccc(-c5c[n+]6ccccc6n5C)cc4)CC3)cc2)c[n+]2ccccc12 readout_number=91
molecule=O=[N+]([O-])/C=C/c1cc(Cl)c(/C=C/[N+](=O)[O-])cc1Cl readout_number=92
molecule=CC(=O)Nc1ccc(/C=C/[N+](=O)[O-])cc1 readout_number=99
molecule="CCCCC(CC)C(=O)[O][Sn]([CH2]CCC)([CH2]CCC)[O]C(=O)C(CC)CCCC (stereo not drawn)" readout_number=98
molecule=CCCCOC(=O)Nc1ccc(C)c(NC(=O)OCCCC)c1 readout_number=18
molecule=Cc1ccc(Cl)cc1NC(=O)OCCN(C)C(=O)Nc1cc(Cl)ccc1C readout_number=2
molecule=CCOC(=O)C#Cc1ccc([N+](=O)[O-])cc1 readout_number=12
molecule=O=C(O)c1ccc(N2C(=O)C=CC2=O)cc1 readout_number=62
molecule="CCCCN(CCCC)CCC(O)c1cc2c(Cl)cc(Cl)cc2c2cc(C(F)(F)F)ccc12 (stereo not drawn)" readout_number=97
molecule=O=C(O)Cc1cc(F)ccc1C(=O)O readout_number=48
molecule=COc1ccc(C/C=N/Nc2ccc([N+](=O)[O-])cc2)cc1OC readout_number=23
molecule=Cc1cc2c(cc1C)[n+]([O-])c(-c1nc3ccccc3s1)c(N)[n+]2[O-] readout_number=94
molecule=S=c1[nH]c2cc3ccccc3cc2[nH]1 readout_number=16
molecule=CCOc1c(N=Nc2ccccc2OC)c(C)nn1C(=S)S readout_number=74
molecule=CCN(CC)CCNc1ccc2ncn3c4cc(OC)c(OC)c(=O)c4c(O)c1c23 readout_number=7
molecule=CS(=O)(=O)OCCN(CCOS(C)(=O)=O)c1ccc(C=Nc2ccc(-c3csc(COc4ccccc4)n3)cc2)cc1 readout_number=91
molecule="N#CC1=C(N)N(/N=C/c2ccccc2)C(c2ccccc2)C1(C#N)C#N (stereo not drawn)" readout_number=95
molecule=Cc1nc2ccc(N=NN(C)C)cc2[nH]1 readout_number=99
molecule=COc1cc([C@@H]2c3cc4c(cc3[C@@H](Nc3ccc(NC(=O)c5cc([N+](=O)[O-])cn5C)cc3)[C@H]3COC(=O)[C@H]23)OCO4)cc(OC)c1O readout_number=41
molecule="CC(=O)OC1CC2C(C)(C)C(=O)C=C[C@]2(C)C2CCC3(C)C(=CCC3[C@H](CO)C[C@H](O)C(=O)C(C)(C)O)[C@]12C (stereo partly drawn)" readout_number=94
molecule=O=C(C[n+]1ccc2ccccc2c1)c1ccc2ccccc2c1 readout_number=98
molecule=O=C(O)c1cc2ccccc2c2c1C(=O)c1ccccc1-2 readout_number=95
